tested_target: recombinant human DAO (diamine oxidase) (Homo sapiens)
Construct: purchased R&D systems
Sequence (P19801 20-751): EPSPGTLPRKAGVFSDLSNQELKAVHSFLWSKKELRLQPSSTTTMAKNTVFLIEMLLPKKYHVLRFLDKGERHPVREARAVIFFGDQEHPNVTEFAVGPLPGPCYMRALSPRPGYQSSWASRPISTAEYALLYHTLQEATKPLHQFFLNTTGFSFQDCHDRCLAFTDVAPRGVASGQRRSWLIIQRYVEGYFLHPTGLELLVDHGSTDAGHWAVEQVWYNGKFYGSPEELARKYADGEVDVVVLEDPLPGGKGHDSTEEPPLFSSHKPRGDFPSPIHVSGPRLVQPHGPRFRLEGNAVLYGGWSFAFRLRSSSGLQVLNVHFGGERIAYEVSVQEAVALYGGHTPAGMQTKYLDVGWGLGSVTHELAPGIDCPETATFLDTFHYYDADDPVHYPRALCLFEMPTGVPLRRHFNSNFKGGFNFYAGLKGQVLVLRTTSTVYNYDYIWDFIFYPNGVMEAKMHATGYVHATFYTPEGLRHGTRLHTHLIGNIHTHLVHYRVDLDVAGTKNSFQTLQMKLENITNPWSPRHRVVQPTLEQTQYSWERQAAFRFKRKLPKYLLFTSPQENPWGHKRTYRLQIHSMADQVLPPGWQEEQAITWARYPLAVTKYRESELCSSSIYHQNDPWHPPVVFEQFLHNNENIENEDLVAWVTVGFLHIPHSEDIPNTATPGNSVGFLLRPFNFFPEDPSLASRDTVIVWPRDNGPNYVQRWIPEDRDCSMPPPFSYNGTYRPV
assay_overview: Activity evaluation on recombinant human DAO (Amplex Red/HRP-coupled assay, 1 mM putrescine substrate)
Type: biochemical
test_parameters: 1 mM putrescine, read-out: Inhibitory Activity (IC50, nM) DAO
Where a name gives a salt, the structure may show the parent alone.
endpoint: IC50 (nM)

-- ask Form: Entry = NCC(Cn1ncn(-c2cccc(-c3ccc(N4CCNCC4)cc3)n2)c1=O)=C(F)F [Example 47, Ditrifluoroacetate] | System = recombinant human DAO (diamine oxidase) (Homo sapiens) | IC50 = ____
-- reply 1900

A = NCC(Cn1ncn(Cc2ccc(/C=C/c3cnc4c(c3)NC(=O)CO4)s2)c1=O)=C(F)F [Example 161, Trifluoroacetate]
B = CCn1cc(-c2ccc(CCn3cnn(CC(CN)=C(F)F)c3=O)s2)cn1 [Example 180, Trifluoroacetate]
C = Cc1cc(-n2cnn(CC(CN)=C(F)F)c2=O)cnc1-c1ccc(N(C)C)nc1 [Example 78, Trifluoroacetate]
D = Cc1cc(-n2cnn(CC(CN)=C(F)F)c2=O)cnc1-c1ccc(S(C)(=O)=O)cc1 [Example 76, Trifluoroacetate]
-- ask In this exercise, place the 4 compounds in ascending sequence of their recorded IC50. I would appreciate it if you listed the labels in the requested order.
-- reply D, C, B, A

###

tested_target: recombinant human DAO (diamine oxidase) (Homo sapiens)
Construct: purchased R&D systems
assay_overview: Activity evaluation on recombinant human DAO (Amplex Red/HRP-coupled assay, 1 mM putrescine substrate)
Format: biochemical
test_parameters: 1 mM putrescine, read-out: Inhibitory Activity (IC50, nM) DAO
Counter-ions that a name gives are not always drawn.
endpoint: IC50 (nM)

-- ask Could you tell me which IC50 is on file for CN(C)c1ccc(-c2ccc(CCn3cnn(CC(CN)=C(F)F)c3=O)s2)cn1 [Example 176, Trifluoroacetate] ?
-- reply 1100

-- ask Now the molecule CCn1cc(-c2cnc(-n3cnn(CC(CN)=C(F)F)c3=O)c(C)c2)cn1 [Example 75, Trifluoroacetate]
-- reply 20000

-- ask Now the molecule NCC(Cn1ncn(-c2cc(-c3ccc4c(c3)OCO4)ccn2)c1=O)=C(F)F [Example 58, Trifluoroacetate]
-- reply 1700

1 = Cc1cc(-n2cnn(CC(CN)=C(F)F)c2=O)cnc1-c1ccc(C(F)(F)F)nc1 [Example 77, Trifluoroacetate]
2 = NCC(Cn1ncn(-c2ccc(-c3ccc4c(c3)OCO4)cc2F)c1=O)=C(F)F [Example 35, Trifluoroacetate]
-- ask Exercise: compare 1 and 2 ; which one has the greater IC50? Pick one; state its label.
-- reply 2

###

tested_target: recombinant human DAO (diamine oxidase) (Homo sapiens)
Construct: purchased R&D systems
assay_overview: Activity evaluation on recombinant human DAO (Amplex Red/HRP-coupled assay, 1 mM putrescine substrate)
Format: biochemical
test_parameters: 1 mM putrescine substrate, read-out: Inhibitory Activity (IC50, nM) DAO
Where a name gives a salt, the structure may show the parent alone.
endpoint: IC50 (nM)

Reference set, count: 2
-- ask Could you tell me which IC50 is on file for NCC(Cn1ncn(Cc2cc3cc(-c4ccc5c(c4)OCO5)ccc3s2)c1=O)=C(F)F [Example 209, Trifluoroacetate] ?
-- reply 93700

-- ask Now the compound CCn1cc(-c2ccc(-c3csc(Cn4cnn(CC(CN)=C(F)F)c4=O)c3)cc2)cn1 [Example 288, Trifluoroacetate]
-- reply 3780

P = Cc1c(-c2ccc(C(F)(F)F)nc2)cccc1-n1cnn(CC(CN)=C(F)F)c1=O [Example 255, Trifluoroacetate]
Q = Cc1cc(-c2cccc(S(C)(=O)=O)c2)cnc1-n1cnn(CC(CN)=C(F)F)c1=O [Example 234, Trifluoroacetate]
-- ask Look at P and Q . Which one has the lower recorded IC50 number? Pick one; state its label.
-- reply Q
(Q: 7500 nM, P: 35000 nM)

###

tested_target: recombinant human VAP-1 (Homo sapiens)
Construct: purchased R&D systems
Sequence (Q16853 whole entry): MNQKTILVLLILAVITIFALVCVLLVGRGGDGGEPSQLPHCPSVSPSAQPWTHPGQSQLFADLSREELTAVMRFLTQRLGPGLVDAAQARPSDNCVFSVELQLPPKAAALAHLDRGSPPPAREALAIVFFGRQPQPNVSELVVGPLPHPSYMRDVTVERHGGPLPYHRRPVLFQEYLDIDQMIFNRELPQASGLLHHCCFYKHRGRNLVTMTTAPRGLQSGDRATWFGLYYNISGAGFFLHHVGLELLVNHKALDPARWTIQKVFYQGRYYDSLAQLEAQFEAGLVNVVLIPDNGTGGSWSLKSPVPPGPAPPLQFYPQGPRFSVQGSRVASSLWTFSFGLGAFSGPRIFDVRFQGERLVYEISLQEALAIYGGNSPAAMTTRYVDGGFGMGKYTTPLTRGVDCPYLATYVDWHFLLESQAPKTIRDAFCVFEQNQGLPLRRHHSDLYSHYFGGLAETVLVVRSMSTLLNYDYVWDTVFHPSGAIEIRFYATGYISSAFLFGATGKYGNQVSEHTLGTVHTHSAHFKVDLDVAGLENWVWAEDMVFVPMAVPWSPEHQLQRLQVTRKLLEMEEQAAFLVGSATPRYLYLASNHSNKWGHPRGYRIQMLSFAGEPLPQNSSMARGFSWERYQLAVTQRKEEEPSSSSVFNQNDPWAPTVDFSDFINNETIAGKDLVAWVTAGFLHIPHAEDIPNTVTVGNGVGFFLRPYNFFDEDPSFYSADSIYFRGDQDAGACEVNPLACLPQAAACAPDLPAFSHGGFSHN
assay_overview: Activity evaluation on recombinant human VAP-1 (Amplex Red/HRP-coupled hydrogen peroxide assay, benzylamine substrate)
Assay type: biochemical
test_parameters: recombinant human VAP-1, benzylamine substrate; read-out: Inhibitory Activity (IC50, nM) human VAP-1
Description: The compounds according to the present technology were evaluated in terms of activity on recombinant human VAP-1 (R&D systems) by measuring the level of hydrogen peroxide in horseradish peroxidase (HRP)-coupled reaction using Amplex Red Hydrogen Peroxide Assay Kit (Molecular Probes, Invitrogen, USA). […] The inhibitory effect of the compounds was measured as a decrease (%) in the signal rate as compared to the control group without any inhibitor (only diluted DMSO). […]
Counter-ions that a name gives are not always drawn.
endpoint: IC50 (nM)

Reference set, count: 6
-- ask Could you tell me which IC50 is on file for Cc1cc(-c2ccc3ocnc3c2)cnc1-n1cnn(CC(CN)=C(F)F)c1=O [Example 229, Trifluoroacetate] ?
-- reply 0.6

-- ask Now the compound NCC(Cn1ncn(Cc2ccc(-c3cn[nH]c3)s2)c1=O)=C(F)F [Example 292, Trifluoroacetate]
-- reply 2.7

-- ask Now the compound NCC(Cn1ncn(Cc2cc(-c3cccc(-c4nc[nH]n4)c3)cs2)c1=O)=C(F)F [Example 196, Trifluoroacetate]
-- reply 1.4

-- ask Now the compound Cn1cc(-c2ccc(Cn3cnn(CC(CN)=C(F)F)c3=O)s2)cn1 [Example 296, Trifluoroacetate]
-- reply 1

-- ask Now the compound CC(C)n1cc(-c2csc(Cn3cnn(CC(CN)=C(F)F)c3=O)c2)cn1 [Example 195, Trifluoroacetate]
-- reply 2

-- ask Now the compound CCn1cc(-c2ccc3sc(Cn4cnn(CC(CN)=C(F)F)c4=O)cc3c2)ccc1=O [Example 207, Trifluoroacetate]
-- reply 0.7

A = COCCNc1ncc(-c2cnc(-n3cnn(CC(CN)=C(F)F)c3=O)c(C)c2)cn1 [Example 222, Trifluoroacetate]
B = NCC(Cn1ncn(Cc2ccccc2-c2ccc(N3CCNCC3)cc2)c1=O)=C(F)F [Example 280, Ditrifluoroacetate]
-- ask Look at A and B . Which one has the lower recorded IC50 number? Pick one; state its label.
-- reply A

###

tested_target: recombinant human DAO (diamine oxidase) (Homo sapiens)
Construct: purchased R&D systems
assay_overview: Activity evaluation on recombinant human DAO (Amplex Red/HRP-coupled assay, 1 mM putrescine substrate)
Assay type: biochemical
test_parameters: 1 mM putrescine substrate, read-out: Inhibitory Activity (IC50, nM) DAO
Where a name gives a salt, the structure may show the parent alone.
endpoint: IC50 (nM)

-- ask Form: Entry = Cc1cc(C#Cc2ccc3c(c2)NCCO3)cnc1-n1cnn(CC(CN)=C(F)F)c1=O [Example 243, Ditrifluoroacetate] | System = recombinant human DAO (diamine oxidase) (Homo sapiens) | IC50 = ____
-- reply 4600

-- ask Now the compound CN1C(=O)CCc2cc(-c3cccc(Cn4cnn(CC(CN)=C(F)F)c4=O)c3)ccc21 [Example 276, Trifluoroacetate]
-- reply 3080

-- ask Now the compound Cc1cc(-c2cccc(-c3nc[nH]n3)c2)cnc1-n1cnn(CC(CN)=C(F)F)c1=O [Example 239, trifluoroacetate]
-- reply 11000

-- ask Now the compound Cc1cc(C#Cc2ccc(N3CCOCC3)nc2)cnc1-n1cnn(CC(CN)=C(F)F)c1=O [Example 242, Trifluoroacetate]
-- reply 4200

-- ask Now the compound CCn1cc(-c2cccc(-c3ccc(Cn4cnn(CC(CN)=C(F)F)c4=O)s3)c2)cn1 [Example 287, Trifluoroacetate]
-- reply 13900

a = CC(C)n1cc(-c2csc(Cn3cnn(CC(CN)=C(F)F)c3=O)c2)ccc1=O [Example 187, Trifluoroacetate]
b = Cc1cc(-c2ccc3c(c2)CN(C)C(=O)N3)cnc1-n1cnn(CC(CN)=C(F)F)c1=O [Example 250, Trifluoroacetate]
-- ask Exercise: compare a and b ; which one has the greater IC50? Pick one; state its label.
-- reply a
(a: 8900 nM, b: 4300 nM)

1 = Cc1cc(-c2cc(F)c(Cn3cnn(CC(CN)=C(F)F)c3=O)s2)cc2c1NC(=O)CC2 [Example 304, Trifluoroacetate]
2 = CN1Cc2cc(-c3csc(Cn4cnn(CC(CN)=C(F)F)c4=O)c3)ccc2NC1=O [Example 186, Trifluoroacetate]
-- ask Exercise: compare 1 and 2 ; which one has the greater IC50? Pick one; state its label.
-- reply 2
(2: 25000 nM, 1: 12600 nM)

###

tested_target: recombinant human MAO-B (monoamine oxidase-B) (Homo sapiens, UniProt P27338)
Construct: purchased Sigma-Aldrich
Sequence (P27338 whole entry): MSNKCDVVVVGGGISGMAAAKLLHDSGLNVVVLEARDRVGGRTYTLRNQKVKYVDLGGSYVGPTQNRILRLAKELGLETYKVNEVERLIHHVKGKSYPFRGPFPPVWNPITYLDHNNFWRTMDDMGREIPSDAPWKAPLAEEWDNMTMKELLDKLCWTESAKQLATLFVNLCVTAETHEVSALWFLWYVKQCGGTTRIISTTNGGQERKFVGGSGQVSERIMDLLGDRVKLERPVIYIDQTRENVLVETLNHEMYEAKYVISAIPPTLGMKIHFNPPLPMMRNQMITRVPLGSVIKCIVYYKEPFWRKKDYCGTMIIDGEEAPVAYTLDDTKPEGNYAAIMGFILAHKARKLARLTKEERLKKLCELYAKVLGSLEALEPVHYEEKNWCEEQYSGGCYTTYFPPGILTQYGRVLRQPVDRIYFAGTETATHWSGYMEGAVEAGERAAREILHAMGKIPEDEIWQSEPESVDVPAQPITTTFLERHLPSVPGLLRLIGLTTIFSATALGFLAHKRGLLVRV
assay_overview: Activity evaluation on recombinant human MAO-B (Amplex Red/HRP-coupled assay, 1 mM benzylamine substrate)
Assay type: biochemical
test_parameters: 1 mM benzylamine, read-out: Inhibitory Activity (IC50, nM) MAO-B
Where a name gives a salt, the structure may show the parent alone.
endpoint: IC50 (nM)

-- ask Could you tell me which IC50 is on file for CN1C(=O)CCc2cc(-c3cc(-n4cnn(CC(CN)=C(F)F)c4=O)ccn3)ccc21 [Example 66, Trifluoroacetate] ?
-- reply 4800

a = CCn1cc(-c2ccc(Cn3cnn(CC(CN)=C(F)F)c3=O)s2)ccc1=O [Example 122, Trifluoroacetate]
b = Cc1cc(-c2ccc(C(F)(F)F)nc2)cnc1-n1cnn(CC(CN)=C(F)F)c1=O [Example 70, Trifluoroacetate]
c = CN1C(=O)CCc2cc(-c3ccc(-n4cnn(CC(CN)=C(F)F)c4=O)cn3)ccc21 [Example 44, Trifluoroacetate]
-- ask Arrange by IC50, high to low. I would appreciate it if you listed the labels in the requested order.
-- reply a, b, c

Source: patent US11168073B2
